This collection of values is drawn from patent US20260306632A1.

Test: Solubility of free imiquimod and imiquimod-oleic acid complex (ImO) in water
Type: physicochemical
Conditions: highest/lowest concentration examined, read-out: solubility
endpoint label: solubility

1) CC(C)Cn1cnc2c(N)nc3ccccc3c21 [free imiquimod, imiquimod] = < 100 µg/mL
